- target.under.test: Aldo-keto reductase family 1 member C3 (Homo sapiens, UniProt P42330)
- Sequence (P42330 whole entry): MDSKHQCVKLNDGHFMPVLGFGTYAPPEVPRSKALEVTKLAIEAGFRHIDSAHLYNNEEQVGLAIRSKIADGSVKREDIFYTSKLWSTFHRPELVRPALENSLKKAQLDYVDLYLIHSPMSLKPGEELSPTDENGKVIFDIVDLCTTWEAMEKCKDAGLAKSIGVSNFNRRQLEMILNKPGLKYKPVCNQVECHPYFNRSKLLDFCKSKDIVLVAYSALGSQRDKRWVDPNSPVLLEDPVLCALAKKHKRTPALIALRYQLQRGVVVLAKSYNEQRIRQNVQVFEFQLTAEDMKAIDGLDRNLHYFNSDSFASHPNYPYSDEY
- assay.name: Inhibition of AKR1C3 overexpressed in human HCT116 cells assessed as inhibition of PR-104A conversion to hydroxylamine after 2 hrs by LC-MS/MS analysis
Reported values of IC50 for individual entries

For orientation, consider the following solved cases.
{"smiles.notation": "O=C(O)c1cccc(S(=O)(=O)NCCc2cccc(Cl)c2)c1", "target.under.test": "Aldo-keto reductase family 1 member C3 (Homo sapiens, UniProt P42330)", "observed": "> 1000 nM"}
{"smiles.notation": "COc1cc2c(cc1OC)CN(S(=O)(=O)c1cccc(C(=O)O)c1)CC2", "target.under.test": "Aldo-keto reductase family 1 member C3 (Homo sapiens, UniProt P42330)", "observed": "> 1000 nM"}
{"smiles.notation": "O=C(O)c1cccc(S(=O)(=O)N2CCc3ccc([N+](=O)[O-])cc3C2)c1", "target.under.test": "Aldo-keto reductase family 1 member C3 (Homo sapiens, UniProt P42330)", "observed": "72 nM"}
{"smiles.notation": "N#Cc1ccc2c(c1)CN(S(=O)(=O)c1cccc(C(=O)O)c1)CC2", "target.under.test": "Aldo-keto reductase family 1 member C3 (Homo sapiens, UniProt P42330)", "observed": "266 nM"}

Reported IC50, compound O=C(O)c1cccc(S(=O)(=O)N2CCc3ccccc32)c1 : ____ > 1000 nM

Reported IC50, compound Nc1cccc2c1CCN(S(=O)(=O)c1cccc(C(=O)O)c1)C2 : ____ 193 nM

Reported IC50, compound O=C(O)c1cccc(S(=O)(=O)N2CCc3c(Cl)cccc3C2)c1 : ____ 16 nM

Reported IC50, compound O=C(O)[C@H]1CCCN(S(=O)(=O)c2ccc3ccccc3c2)C1 : ____ > 1000 nM

Reported IC50, compound O=C(O)c1cccc(S(=O)(=O)N2CCc3ccc(Cl)cc3C2)c1 : ____ > 1000 nM

Reported IC50, compound O=C(O)c1cccc(S(=O)(=O)NCCc2ccc(Cl)cc2)c1 : ____ > 1000 nM

Reported IC50, compound O=C(O)c1cccc(S(=O)(=O)N2CC=CCC2)c1 : ____ > 1000 nM

* * *

- target.under.test: Aldo-keto reductase family 1 member C1 (Homo sapiens)
- Sequence (Q04828 whole entry): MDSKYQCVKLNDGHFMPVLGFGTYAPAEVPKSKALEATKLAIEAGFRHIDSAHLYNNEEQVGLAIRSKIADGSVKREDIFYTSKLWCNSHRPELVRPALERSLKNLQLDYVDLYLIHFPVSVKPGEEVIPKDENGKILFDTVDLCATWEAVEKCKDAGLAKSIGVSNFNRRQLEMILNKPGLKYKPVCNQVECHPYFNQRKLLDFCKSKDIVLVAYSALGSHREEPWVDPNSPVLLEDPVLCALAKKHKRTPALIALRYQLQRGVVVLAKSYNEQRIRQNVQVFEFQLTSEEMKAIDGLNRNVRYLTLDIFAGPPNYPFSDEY
- assay.name: Inhibition of human recombinant AKR1C1 expressed in Escherichia coli BL21(DE3) using phenanthrenequinone as substrate by spectrophotometric analysis
experimental.readout: Ki (µM)
Write down the numeric answer in µM and omit the unit.

Reported Ki, compound CC/C=C\C[C@H]1C(=O)CC[C@@H]1CC(=O)O : ____ 106

* * *

- target.under.test: Aldo-keto reductase family 1 member C3 (Homo sapiens, UniProt P42330)
- assay.name: biochemical
- Description: Inhibition of human recombinant N-terminal His6-tagged AKR1C3 expressed in Escherichia coli BL21(DE3) cells using 8-Acetyl-2,3,5,6-tetrahydro-1H,4H-11-oxa-3a-aza-benzo[de]anthracen-10-one as substrate after 1 hr by fluorimetric analysis
experimental.readout: pIC50
As a rule, pIC50 stands for the negative log10 of the concentration, concentration in M.

{"smiles.notation": "O=C(O)c1cccc(S(=O)(=O)Nc2ccc3ccccc3c2)c1", "pIC50": 6.22}
{"smiles.notation": "O=C(O)c1cccc(S(=O)(=O)N2CCc3ccccc3C2)c1", "pIC50": 7.89}
{"smiles.notation": "O=C(O)c1cccc(S(=O)(=O)N2CCc3ccc(-c4nnn[nH]4)cc3C2)c1", "pIC50": 7.17}
{"smiles.notation": "O=C(O)c1cccc(S(=O)(=O)N2CCc3sccc3C2)c1", "pIC50": 7.60}
{"smiles.notation": "O=C(O)c1cccc(S(=O)(=O)NCCc2ccccc2F)c1", "pIC50": 6.48}

Reported pIC50, molecule O=C(O)c1cccc(S(=O)(=O)N2CCc3ccc([N+](=O)[O-])cc3C2)c1 : ____ 7.77
